- method-description: Solubility in different pH solution and pH changes of the solution
- Type: physicochemical
- condition-info: pH 4 solution, pH 4, aqueous buffer, pH = 4 solution; read-out: Solubility (2)
endpoint-name: solubility (µg/mL)
Provide the reading as a plain figure in µg/mL.

Prompt: Return reported solubility. Input molecule: COc1cc2c(cc1OC)CN1CCc3cc4c(cc3[C@@H]1C2)OCO4 [DC037009]
Response: 403

---

- method-description: Pharmacokinetics study in rats (gavage and intravenous)
- Type: in vivo, SD rats
- condition-info: male, SD, rat, plasma, po, 20 mg/kg, gavage 20 mg/kg, individual animals 1-3, read-out: AUC0-t
- Method: Gavage administration to rats. 3 healthy SD rats (male, weighed 200-220 g) were fasted for 12 hours before the administration but were allowed to drink water. Compound DC037009 was formulated with 10% DMSO/10% Tween 80/80% saline and was administered by 20 mg/kg dose and the dosing volume was 10 mL/kg. Intravenous administration to rats. 3 healthy SD rats (male, weighed 200-220 g) were fasted for 12 hours before the administration but were allowed to drink water. […]
endpoint-name: AUC0-t (ng·h/mL)
// return numeric value only (unit: ng·h/mL, not printed)

Prompt: Quick one: give measured AUC0-t for COc1cc2c(cc1OC)CN1CCc3cc4c(cc3[C@@H]1C2)OCO4 [DC037009]
Response: 2570

---

- method-description: Solubility in different pH solution and pH changes of the solution
- Type: physicochemical
- condition-info: pH 2 solution, pH 2, simulated gastric fluid, pH = 2 solution; read-out: Solubility (1)
endpoint-name: solubility

Prompt: Assign solubility to the following record: `COc1cc2c(cc1OC)CN1CCc3cc4c(cc3[C@@H]1C2)OCO4`
Response: > 1000 µg/mL

---

The following molecules are listed with their measured log10 of IC50 values.
- assay-target: α1D-AR (Homo sapiens, UniProt P25100)
- Construct: expressed in transfected cells; host or cells: HEK293
- Sequence (P25100 whole entry): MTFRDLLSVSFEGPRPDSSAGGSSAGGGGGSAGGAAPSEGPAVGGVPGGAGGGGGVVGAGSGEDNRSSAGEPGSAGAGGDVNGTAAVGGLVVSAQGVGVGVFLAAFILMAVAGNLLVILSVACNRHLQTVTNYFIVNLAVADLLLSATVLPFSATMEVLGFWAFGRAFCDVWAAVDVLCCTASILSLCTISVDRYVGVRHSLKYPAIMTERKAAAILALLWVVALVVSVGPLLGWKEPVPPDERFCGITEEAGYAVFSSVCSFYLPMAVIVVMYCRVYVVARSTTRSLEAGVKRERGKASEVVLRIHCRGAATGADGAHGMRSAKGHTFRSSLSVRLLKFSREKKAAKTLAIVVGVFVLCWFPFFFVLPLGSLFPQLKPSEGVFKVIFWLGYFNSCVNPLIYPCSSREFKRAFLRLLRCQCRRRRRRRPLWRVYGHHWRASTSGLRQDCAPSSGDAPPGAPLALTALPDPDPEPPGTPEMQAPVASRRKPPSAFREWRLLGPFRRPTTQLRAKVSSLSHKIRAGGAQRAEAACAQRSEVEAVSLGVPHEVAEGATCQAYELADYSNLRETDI
- method-description: Calcium mobilization (Fluo-4) antagonism of phenylephrine in HEK293 cells expressing α1D-AR/Gα16
- Assay type: cell-based
- condition-info: phenylephrine 30 nM
// stored as log10 of IC50 expressed in nM

Prompt: Hello, please tell me recorded log10 of IC50 for this one: `COc1cc2c(cc1OCc1ccccc1)CN1CCc3cc4c(cc3[C@@H]1C2)OCO4`
Response: 3.13

Prompt: Indicate the recorded log10 of IC50 value for this molecule: `COc1cc2c(cc1OC)[C@@H]1Cc3cc4c(cc3CN1CC2)OCO4`
Response: 3.47

Prompt: In one line, give reported log10 of IC50 of the entry `COc1cc2c(c(OC)c1OC)CN1CCc3cc4c(cc3[C@@H]1C2)OCO4` .
Response: 3.41

Prompt: Please list log10 of IC50 recorded for the molecule `COc1ccc2c(c1)CCN1Cc3cc(OC)c(OC)cc3C[C@@H]21`
Response: 2.63

Prompt: Given the molecule COc1cc2c(cc1OC)C1Cc3cc4c(cc3CN1CC2)OCO4 (stereo not drawn) , write its reported log10 of IC50.
Response: 3.33

Prompt: Look up and report measured log10 of IC50 for this entry: `COc1ccc(OC)c2c1C[C@H]1c3cc4c(cc3CCN1C2)OCO4`
Response: 1.88

Prompt: Give log10 of IC50 for `COc1cc2c(cc1O)[C@@H]1Cc3cc4c(cc3CN1CC2)OCO4`
Response: 2.42

Prompt: Dear colleague, please send me the reported log10 of IC50 for `COc1cc2c(cc1OC)CN1CCc3cc4c(cc3[C@@H]1C2)OCO4` when you can.
Response: 2.41

Prompt: Supply log10 of IC50 value. Item: `COc1cc2c(cc1OC)[C@@H](C)N1CCc3cc(OC)c(OC)cc3[C@@H]1C2`
Response: 3.40

Cited source: patent US9737517B2
